- System: P388 leukemia ip, CD2F1 mice, survival T/C
- methodSummary: NCI In Vivo Anticancer Drug Screen. Data for tumor model P388 Leukemia (intraperitoneal) in CD2F1 (CDF1) mice
- testSettings: endpoint: median survival time; dose: 100.0 mg/kg/injection; schedule: Q01DX005 (ip); vehicle: saline with Tween-80; higher = longer survival
Toxic doses and inconclusive results are not listed. Peptide text beside a SMILES is read from it. * marks the point of attachment. For = O=C*
readout: T/C

>>> recordedvalue("O=C(CCl)NC(O)C(Cl)(Cl)Cl (stereo not given)")
"99 % of control"
>>> recordedvalue("CN(CC(=O)NC(Cc1c[nH]c2ccccc12)C(=O)O)C(=O)OCc1ccccc1 (stereo not given)")
"102 % of control"
>>> recordedvalue("CSCCC(NC(=O)C(Cc1ccccc1)NC=O)C(=O)O (stereo not drawn) (For-Phe-Met-OH; configuration not given here)")
"103 % of control"
>>> recordedvalue("CNc1ccccc1C(=O)NNC(=O)Nc1ccccc1C(F)(F)F")
"100 % of control"
>>> recordedvalue("CCN(CC)CCNc1ccc(CO)c2oc3ccc(OS(=O)(=O)c4ccc(C)cc4)cc3c(=O)c12")
"106 % of control"

* * *

- Test system: P388 leukemia ip, CD2F1 mice, survival T/C
- methodSummary: NCI In Vivo Anticancer Drug Screen. Data for tumor model P388 Leukemia (intraperitoneal) in CD2F1 (CDF1) mice
- testSettings: endpoint: median survival time; dose: 25.0 mg/kg/injection; schedule: Q01DX009 (ip); vehicle: saline; higher = longer survival
Inconclusive results and toxic doses are left out.
readout: T/C

>>> recordedvalue("COC(=O)C1=C(C(=O)OC)[C]([Hg][CH3])(C(=O)c2ccccc2)N=N1 (stereo unspecified)")
"90 % of control"
>>> recordedvalue("Cc1ccc2cccc(OC(=O)Nc3ccc(Cl)c(Cl)c3)c2n1")
"103 % of control"
>>> recordedvalue("CCCCC(NC(=O)CC)C(=O)O (stereo unspecified)")
"98 % of control"
>>> recordedvalue("O=C(O)C(F)(F)F.O=C(O)C(F)(F)F.O=C(O)C(F)(F)F.O=C(O)C(F)(F)F.[Rh].[Rh]")
"86 % of control"
>>> recordedvalue("CCSCCCC(=O)O")
"100 % of control"
>>> recordedvalue("O=C1C[N+]2(Cc3ccccc3)CCC1CC2")
"108 % of control"

* * *

As shown below, each of these molecules has a reported T/C value.
- Tested on: P388 leukemia ip, CD2F1 mice, survival T/C
- methodSummary: NCI In Vivo Anticancer Drug Screen. Data for tumor model P388 Leukemia (intraperitoneal) in CD2F1 (CDF1) mice
- testSettings: endpoint: median survival time; dose: 100.0 mg/kg/injection; schedule: Q01DX005 (ip); vehicle: Klucel (hydroxypropylcellulose) (HPC); higher = longer survival
Toxic doses and inconclusive results are not listed. Square brackets hold non-standard residues; d marks the D form. Peptide text beside a SMILES is read from it. * marks the point of attachment. ξ: configuration not given here. Cbz = O=C(OCc1ccccc1)*; ξI = CCC(C)C(N)C(=O)O
readout: T/C

>>> recordedvalue("C(=Nc1ccc2ccc3cccc4ccc1c2c34)c1ccncc1")
"100 % of control"
>>> recordedvalue("CC1CN2CC(C)O[Si](CC[Si]34OC(C)CN(CC(C)O3)CC(C)O4)(O1)OC(C)C2 (stereo unspecified)")
"106 % of control"
>>> recordedvalue("Clc1ccc2[nH]c3ccc(Cl)cc3c2c1")
"113 % of control"
>>> recordedvalue("CP(=O)(OCCOCCOP(C)(=O)c1ccccc1)c1ccccc1 (stereo unspecified)")
"103 % of control"
>>> recordedvalue("OCC(O)CNc1ncnc2cc(Cl)ccc12 (stereo unspecified)")
"102 % of control"
>>> recordedvalue("CCC(C)C(NC(=O)OCc1ccccc1)C(=O)NCC(=O)O (stereo unspecified) (Cbz-[ξI]-Gly-OH)")
"97 % of control"

* * *

// values below are reported T/C
- System: P388 leukemia ip, CD2F1 mice, survival T/C
- methodSummary: NCI In Vivo Anticancer Drug Screen. Data for tumor model P388 Leukemia (intraperitoneal) in CD2F1 (CDF1) mice
- testSettings: endpoint: median survival time; dose: 50.0 mg/kg/injection; schedule: Q01DX005 (ip); vehicle: saline with Tween-80; higher = longer survival
Toxic doses and inconclusive results are not listed.
readout: T/C

>>> recordedvalue("CCOC(=O)C1=NNC(C#N)C1 (stereo unspecified)")
"101 % of control"
>>> recordedvalue("O=[N+]([O-])c1ccc(C=C2C=CN(CCO)C=C2)cc1")
"100 % of control"
>>> recordedvalue("CO/C(C)=C1/C(=O)O/C(=C/Nc2ccccc2)C1=O")
"107 % of control"
>>> recordedvalue("O=C(NC1CCCCC1)C1C(=O)C(=O)N(C2CCCCC2)C1=O (stereo unspecified)")
"105 % of control"
>>> recordedvalue("O=[N+]([O-])c1c(Nc2ccccc2)n(-c2ccccc2)c2ccc(O)cc12")
"86 % of control"
>>> recordedvalue("CCOc1cccc(/C=N/NC(=O)C(=O)Nc2ccc(Cl)c([N+](=O)[O-])c2)c1O")
"100 % of control"

* * *

- Test system: P388 leukemia ip, CD2F1 mice, survival T/C
- methodSummary: NCI In Vivo Anticancer Drug Screen. Data for tumor model P388 Leukemia (intraperitoneal) in CD2F1 (CDF1) mice
- testSettings: endpoint: median survival time; dose: 100.0 mg/kg/injection; schedule: Q01DX005 (ip); vehicle: saline with Tween-80; higher = longer survival
- Procedure: The antitumor activity of compounds was measured in mice bearing transplantable tumors. Survival or tumor size were measured and the results are expressed as the measurement made in the treated group (T) divided by the measurement made in the vehicle treated control group (C). The tumor model used in this assay is P388 Leukemia (intraperitoneal) in CD2F1 (CDF1) mice
Inconclusive results and toxic doses are left out.
readout: T/C

>>> recordedvalue("C=CCOP1(OCC=C)=NP(OCC=C)(OCC=C)=NP(OCC=C)(OCC=C)=N1")
"100 % of control"
>>> recordedvalue("CSC1=NC=C(C#N)C2=NC(c3ccccc3)NN12 (centres undefined)")
"97 % of control"
>>> recordedvalue("Nc1nc(SCC(=O)O)[nH]c(=O)c1N")
"104 % of control"
>>> recordedvalue("CCCCCC(CN(C)C)C(=O)/C=C/c1ccc(C)cc1 (centres undefined)")
"98 % of control"

* * *

- Test system: P388 leukemia ip, CD2F1 mice, survival T/C
- methodSummary: NCI In Vivo Anticancer Drug Screen. Data for tumor model P388 Leukemia (intraperitoneal) in CD2F1 (CDF1) mice
- testSettings: endpoint: median survival time; dose: 200.0 mg/kg/injection; schedule: Q04DX002 (ip); vehicle: saline; higher = longer survival
Toxic doses and inconclusive results are not listed.
List of T/C values.
readout: T/C

>>> recordedvalue("Nc1nc(Cl)cc2nsnc12")
"99 % of control"
>>> recordedvalue("N=C(N)SCC[n+]1cccc2cccc(O)c21")
"100 % of control"
>>> recordedvalue("CC1=CC(OC2C=C(C)C(=O)O2)OC1=O (centres undefined)")
"100 % of control"
>>> recordedvalue("O=C(O)C1CCCCC12OCCO2 (centres undefined)")
"106 % of control"

* * *

- Tested on: P388 leukemia ip, CD2F1 mice, survival T/C
- methodSummary: NCI In Vivo Anticancer Drug Screen. Data for tumor model P388 Leukemia (intraperitoneal) in CD2F1 (CDF1) mice
- testSettings: endpoint: median survival time; dose: 12.5 mg/kg/injection; schedule: Q04DX003 (ip); vehicle: saline
Toxic doses and inconclusive results are not listed. The calls were made as follows: active = survival T/C of 150% or more; inactive = T/C below 125% in these data.
Labels: active, inactive

>>> grouplabel("CCOC(=O)C(Cc1ccc(N(CCCl)CCCl)cc1)NC(=O)CNC(C)=O (configuration not stated)")
"active"
>>> grouplabel("O.O.O=S(=O)(O)C(F)(F)F.[NH2-].[NH2-].[NH2-].[NH2-].[Ru+3]")
"inactive"
>>> grouplabel("c1ccc(C[N+]23CCC(CC2)CC3)cc1")
"inactive"
>>> grouplabel("O=C1NC(c2ccccc2)(c2ccccc2)C(=O)N1CCBr")
"inactive"
>>> grouplabel("[CH3][Sn]([CH3])([Cl])[O][Sn]([CH3])([CH3])[Cl]")
"inactive"
>>> grouplabel("Nc1ccc(S(=O)c2ccc(N)cc2)cc1")
"inactive"
>>> grouplabel("COc1ccc2c(c1)/C(=C/CCN(C)C)c1ccccc1S2")
"inactive"

* * *

Entries annotated with measured T/C
- System: P388 leukemia ip, CD2F1 mice, survival T/C
- methodSummary: NCI In Vivo Anticancer Drug Screen. Data for tumor model P388 Leukemia (intraperitoneal) in CD2F1 (CDF1) mice
- testSettings: endpoint: median survival time; dose: 240.0 mg/kg/injection; schedule: Q01DX005 (ip); vehicle: saline with Tween-80; higher = longer survival
Toxic doses and inconclusive results are not listed.
readout: T/C

>>> recordedvalue("COCOc1c(OC)c(C2(O)C(=O)N(C)c3ccccc32)c(OCOC)c(OC)c1C1(O)C(=O)N(C)c2ccccc21 (stereo not drawn)")
"88 % of control"
>>> recordedvalue("Cc1ccc(NC(=O)CCCC(=O)C(C#N)c2nc3ccccc3s2)cc1C (stereo not drawn)")
"98 % of control"
>>> recordedvalue("CCCCC(O)CNc1ccccc1 (stereo not drawn)")
"90 % of control"

Source listed as PubChem BioAssay AID330.
